Each item that follows carries a reported Flt3 Inhibition (percent inhibition of Flt3 kinase activity).
Measurement target: human Flt-3 (Homo sapiens, UniProt P36888)
Construct: expresses the amino acid region amino acids 563-993 of the intra-cytoplasmic kinase domains of human Flt-3; made in house; host or cells: Sf9 insect cells (baculovirus, pFbacG01 donor vector)
Procedure summary: Tyrosine protein kinase assay with purified GST-Flt-3 (33P incorporation)
Format: biochemical
Experimental setup: at a 1.0 micromolar concentration
Quick reminder: number only, in %, skip the unit.

Observe how each entry below is paired with its result.
Compound	Numeric result
CO[C@@H]1[C@H](N)C[C@H]2O[C@]1(C)n1c3ccccc3c3c4c(c5c6ccccc6n2c5c31)C(=O)NC4 [126221-77-0]	96
COC1C(N(C)C(=O)c2ccc(C(=O)[O-])cc2)CC2OC1(C)n1c3ccccc3c3c4c(c5c6ccccc6n2c5c31)C(=O)NC4.[Na+] (centres unmarked) [120751-44-2]	90
COC1C(N(C)C(=O)c2cccc(F)c2)CC2OC1(C)n1c3ccccc3c3c4c(c5c6ccccc6n2c5c31)C(=O)NC4 (centres unmarked) [120685-16-7]	60
CO[C@@H]1[C@H](N(C)C(=O)CNC(=O)OC(C)(C)C)C[C@H]2O[C@]1(C)n1c3ccccc3c3c4c(c5c6ccccc6n2c5c31)C(=O)NC4 [124078-43-9]	65

Next up:
Name the value of Flt3 Inhibition (percent inhibition of Flt3 kinase activity) reported for CC[N+](C)(C)C1CC2OC(C)(C1OC)n1c3ccccc3c3c4c(c5c6ccccc6n2c5c31)C(=O)NC4.[I-] (centres unmarked) [120685-28-1] when tested on human Flt-3 (Homo sapiens, UniProt P36888).
100

---

Each item that follows carries a reported Flt3 Inhibition (percent inhibition of Flt3 kinase activity).
Measurement target: human Flt-3 (Homo sapiens)
Construct: expresses the amino acid region amino acids 563-993 of the intra-cytoplasmic kinase domains of human Flt-3; made in house; host or cells: Sf9 insect cells (baculovirus, pFbacG01 donor vector)
Sequence (P36888 563-993): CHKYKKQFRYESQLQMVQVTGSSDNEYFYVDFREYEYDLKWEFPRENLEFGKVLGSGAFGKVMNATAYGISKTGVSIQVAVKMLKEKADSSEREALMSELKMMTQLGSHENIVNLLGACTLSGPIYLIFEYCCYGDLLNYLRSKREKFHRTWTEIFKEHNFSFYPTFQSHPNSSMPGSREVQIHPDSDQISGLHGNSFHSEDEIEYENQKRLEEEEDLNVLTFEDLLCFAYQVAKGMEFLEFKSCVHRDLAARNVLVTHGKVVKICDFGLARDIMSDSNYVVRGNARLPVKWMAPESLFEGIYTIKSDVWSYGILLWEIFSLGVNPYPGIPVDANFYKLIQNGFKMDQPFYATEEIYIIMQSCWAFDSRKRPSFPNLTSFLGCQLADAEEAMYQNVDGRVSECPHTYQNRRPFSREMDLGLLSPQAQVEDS
Procedure summary: Tyrosine protein kinase assay with purified GST-Flt-3 (33P incorporation)
Assay type: biochemical
Experimental setup: at a 1.0 micromolar concentration
Quick reminder: number only, in %, skip the unit.

Compound	Units text	Numeric result
CNC(=S)N(C)C1CC2OC(C)(C1OC)n1c3ccccc3c3c4c(c5c6ccccc6n2c5c31)C(=O)NC4 (centres unmarked)	%	91
COC1C(N(C)C(=O)c2ccc(F)cc2)CC2OC1(C)n1c3ccccc3c3c4c(c5c6ccccc6n2c5c31)C(=O)NC4 (centres unmarked)	%	55
COC1C(N(C)C(=O)C(C)OC2CCOCC2)CC2OC1(C)n1c3ccccc3c3c4c(c5c6ccccc6n2c5c31)C(=O)NC4 (centres unmarked) [160251-50-3]	%	89
COC1C(N(C)C(=O)CCN)CC2OC1(C)n1c3ccccc3c3c4c(c5c6ccccc6n2c5c31)C(=O)NC4.Cl (centres unmarked)	%	99
COC1C(N(C)C(=O)C(F)(F)F)CC2OC1(C)n1c3ccccc3c3c4c(c5c6ccccc6n2c5c31)C(=O)NC4 (centres unmarked)	%	66

Name the value of Flt3 Inhibition (percent inhibition of Flt3 kinase activity) reported for COC1C(N(C)C(=O)c2cnccn2)CC2OC1(C)n1c3ccccc3c3c4c(c5c6ccccc6n2c5c31)C(=O)NC4 (centres unmarked) when tested on human Flt-3 (Homo sapiens).
85

Name the value of Flt3 Inhibition (percent inhibition of Flt3 kinase activity) reported for C=CCNC(=S)N(C)C1CC2OC(C)(C1OC)n1c3ccccc3c3c4c(c5c6ccccc6n2c5c31)C(=O)NC4 (centres unmarked) when tested on human Flt-3 (Homo sapiens).
93

---

Measurement target: human Flt-3 (Homo sapiens, UniProt P36888)
Construct: expresses the amino acid region amino acids 563-993 of the intra-cytoplasmic kinase domains of human Flt-3; made in house; host or cells: Sf9 insect cells (baculovirus, pFbacG01 donor vector)
Procedure summary: Tyrosine protein kinase assay with purified GST-Flt-3 (33P incorporation)
Type: biochemical
Experimental setup: at a 1.0 micromolar concentration
// label = YES if Flt3 Inhibition (percent inhibition of Flt3 kinase activity) is not less than 80%, otherwise NO

Worked examples follow.
Molecule	Measurement target	Label class
COC1C(N(C)C(=O)CNC(=O)OCc2ccccc2)CC2OC1(C)n1c3ccccc3c3c4c(c5c6ccccc6n2c5c31)C(=O)NC4 (stereo not shown)	human Flt-3 (Homo sapiens, UniProt P36888)	NO
COC1C(N(C)C(=O)c2ccc(O)cc2)CC2OC1(C)n1c3ccccc3c3c4c(c5c6ccccc6n2c5c31)C(=O)NC4 (stereo not shown)	human Flt-3 (Homo sapiens, UniProt P36888)	YES
CO[C@@H]1[C@H](N(C)C(=O)OC(C)(C)C)C[C@H]2O[C@]1(C)n1c3ccccc3c3c4c(c5c6ccccc6n2c5c31)C(=O)NC4	human Flt-3 (Homo sapiens, UniProt P36888)	NO
COC1C([N+](C)(C)C)CC2OC1(C)n1c3ccccc3c3c4c(c5c6ccccc6n2c5c31)C(=O)NC4.[I-] (stereo not shown)	human Flt-3 (Homo sapiens, UniProt P36888)	YES
CO[C@@H]1[C@H](N(C)C(=O)C(C)(C)OC2CCOCC2)C[C@H]2O[C@]1(C)n1c3ccccc3c3c4c(c5c6ccccc6n2c5c31)C(=O)NC4	human Flt-3 (Homo sapiens, UniProt P36888)	YES

Below: the item to evaluate.
Check if Flt3 Inhibition (percent inhibition of Flt3 kinase activity) >= 80% (inclusive). Item: COC1C(=O)CC2OC1(C)n1c3ccccc3c3c4c(c5c6ccccc6n2c5c31)C(=O)NC4 (stereo not shown)
YES

---

Measurement target: human Flt-3 (Homo sapiens, UniProt P36888)
Construct: expresses the amino acid region amino acids 563-993 of the intra-cytoplasmic kinase domains of human Flt-3; made in house; host or cells: Sf9 insect cells (baculovirus, pFbacG01 donor vector)
Procedure summary: Tyrosine protein kinase assay with purified GST-Flt-3 (33P incorporation)
Type: biochemical
Experimental setup: at a 1.0 micromolar concentration
Parameter: Flt3 Inhibition (percent inhibition of Flt3 kinase activity) (%)
Quick reminder: number only, in %, skip the unit.

Tell me measured Flt3 Inhibition (percent inhibition of Flt3 kinase activity) for COC(=O)CN(C)C1CC2OC(C)(C1OC)n1c3ccccc3c3c4c(c5c6ccccc6n2c5c31)C(=O)NC4 (stereo not shown) [120685-21-4] please.
82

Tell me measured Flt3 Inhibition (percent inhibition of Flt3 kinase activity) for CO[C@@H]1[C@H](N(C)C(=O)c2ccccc2)C[C@H]2O[C@]1(C)n1c3ccccc3c3c4c(c5c6ccccc6n2c5c31)C(=O)NC4O (stereo partly shown) [179237-49-1] please.
41

Tell me measured Flt3 Inhibition (percent inhibition of Flt3 kinase activity) for CO[C@@H]1[C@H](N(C)C(=O)CCC(=O)[O-])C[C@H]2O[C@]1(C)n1c3ccccc3c3c4c(c5c6ccccc6n2c5c31)C(=O)NC4.[Na+] [120685-10-1] please.
98

Tell me measured Flt3 Inhibition (percent inhibition of Flt3 kinase activity) for CO[C@@H]1[C@H](N(C)C(=O)c2ccccc2)C[C@H]2O[C@]1(C)n1c3ccccc3c3c4c(c5c6ccccc6n2c5c31)C(=O)NC4=O [154589-96-5] please.
63

Tell me measured Flt3 Inhibition (percent inhibition of Flt3 kinase activity) for COC1C(N(C)C(=O)CN)CC2OC1(C)n1c3ccccc3c3c4c(c5c6ccccc6n2c5c31)C(=O)NC4.Cl (stereo not shown) [124151-42-4] please.
97

Tell me measured Flt3 Inhibition (percent inhibition of Flt3 kinase activity) for COC1C(N(C)C(=O)c2cccnc2)CC2OC1(C)n1c3ccccc3c3c4c(c5c6ccccc6n2c5c31)C(=O)NC4 (stereo not shown) [155848-16-1] please.
89

Tell me measured Flt3 Inhibition (percent inhibition of Flt3 kinase activity) for COC1C(N(C)C(=O)c2cc([N+](=O)[O-])cc([N+](=O)[O-])c2)CC2OC1(C)n1c3ccccc3c3c4c(c5c6ccccc6n2c5c31)C(=O)NC4 (stereo not shown) [120685-18-9] please.
63
